Biological target: EPHB2 (UniProt P29323)
Sequence (P29323 whole entry, looked up): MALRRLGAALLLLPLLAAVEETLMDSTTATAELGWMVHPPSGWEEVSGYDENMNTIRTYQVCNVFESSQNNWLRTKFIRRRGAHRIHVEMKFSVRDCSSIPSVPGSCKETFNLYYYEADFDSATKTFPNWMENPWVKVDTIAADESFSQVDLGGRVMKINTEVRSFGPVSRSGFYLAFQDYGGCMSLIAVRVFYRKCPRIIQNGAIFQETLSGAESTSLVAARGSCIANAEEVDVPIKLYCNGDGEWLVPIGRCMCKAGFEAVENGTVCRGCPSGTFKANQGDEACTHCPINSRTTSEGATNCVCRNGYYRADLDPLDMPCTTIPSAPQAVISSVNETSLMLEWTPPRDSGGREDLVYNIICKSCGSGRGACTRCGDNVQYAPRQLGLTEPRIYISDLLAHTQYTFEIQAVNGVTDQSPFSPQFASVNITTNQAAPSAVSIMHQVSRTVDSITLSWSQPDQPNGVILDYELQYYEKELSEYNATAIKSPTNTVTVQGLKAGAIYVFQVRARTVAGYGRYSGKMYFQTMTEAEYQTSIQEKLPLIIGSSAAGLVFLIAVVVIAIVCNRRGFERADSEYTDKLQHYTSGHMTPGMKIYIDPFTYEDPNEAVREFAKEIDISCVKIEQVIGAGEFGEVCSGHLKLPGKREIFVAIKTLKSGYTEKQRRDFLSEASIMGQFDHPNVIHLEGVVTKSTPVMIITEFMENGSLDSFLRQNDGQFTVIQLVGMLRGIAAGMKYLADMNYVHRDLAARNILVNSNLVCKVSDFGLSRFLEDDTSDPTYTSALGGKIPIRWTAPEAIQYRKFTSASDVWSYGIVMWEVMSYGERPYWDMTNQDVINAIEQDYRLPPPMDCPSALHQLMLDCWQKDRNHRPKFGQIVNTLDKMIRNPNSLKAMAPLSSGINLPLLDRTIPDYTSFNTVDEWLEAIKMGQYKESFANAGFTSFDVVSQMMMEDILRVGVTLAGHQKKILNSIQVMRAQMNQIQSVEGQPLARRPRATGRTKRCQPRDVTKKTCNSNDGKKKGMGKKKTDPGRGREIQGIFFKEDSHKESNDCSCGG
Test: phosphorylation enrichment, bacterial display (enrichment ratio); higher = better substrate or ligand; peptides without Tyr show the background
Label Not met if phosphorylation enrichment falls below 0.7; label Met in every other case.

sequence-text	target-of-assay	group-label
GGFSRYDEGSG [RECQL5_Y484_D480G]	EPHB2 (UniProt P29323)	Not met

Hello, I need to know if YSGDYYRIQGR [DDR2_Y741] has measured phosphorylation enrichment not below 0.7. Thanks!
Met

Hello, I need to know if FCRITYDIFPF [INTS13_Y67_M66T_YF] has measured phosphorylation enrichment not below 0.7. Thanks!
Met

Hello, I need to know if LEDEVYAQKMK [TPM2_Y261] has measured phosphorylation enrichment not below 0.7. Thanks!
Met

Hello, I need to know if SQGRQYQELPR [KCNH2_Y1009_R1005Q] has measured phosphorylation enrichment not below 0.7. Thanks!
Not met

Hello, I need to know if PTKNDYWAMPA [WWOX_Y287_L291P] has measured phosphorylation enrichment not below 0.7. Thanks!
Met

Hello, I need to know if RASDYYSQQMA [GBP6_Y334_A331S] has measured phosphorylation enrichment not below 0.7. Thanks!
Not met

Hello, I need to know if LPQDGYRIVQH [PTPRT_Y1329_R1324L] has measured phosphorylation enrichment not below 0.7. Thanks!
Not met

Hello, I need to know if VDSAHYKLLET [DTX3L_Y385] has measured phosphorylation enrichment not below 0.7. Thanks!
Not met

Hello, I need to know if FTHSDYQFGQR [PKP2_Y166_S169G_YF] has measured phosphorylation enrichment not below 0.7. Thanks!
Not met

* * *

Tested on: c-Abl (mouse)
Assay: phosphorylation enrichment, bacterial display (enrichment ratio); higher = better substrate or ligand; peptides without Tyr show the background
Label Not fulfilled if phosphorylation enrichment falls below 0.8; label Fulfilled in every other case.

Hello, I need to know if REVPVYTFSEP [FAM120B_Y368_D370Y_YF] has measured phosphorylation enrichment not below 0.8. Thanks!
Fulfilled

Hello, I need to know if SVQVDYMKTIL [GLYATL2_Y127] has measured phosphorylation enrichment not below 0.8. Thanks!
Not fulfilled

Hello, I need to know if VKANTYEKYWL [GATM_Y100_P105L] has measured phosphorylation enrichment not below 0.8. Thanks!
Not fulfilled

Hello, I need to know if SRFQFYFQQKG [CHKB_Y381] has measured phosphorylation enrichment not below 0.8. Thanks!
Fulfilled

Hello, I need to know if TDHLRYFDSNK [ARAP1_Y359] has measured phosphorylation enrichment not below 0.8. Thanks!
Fulfilled

Hello, I need to know if VDGSVYKLHPS [GCK_Y413] has measured phosphorylation enrichment not below 0.8. Thanks!
Not fulfilled

* * *

Item-by-item account of SH2 binding enrichment
Target: SHP2-C SH2;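 further: peptide library displayed on the E. coli surface as eCPX fusions, selected cells deep-sequenced, score is each peptide's frequency after selection divided by its frequency in the input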
Experiment: SH2 binding enrichment of the phosphorylated peptide, bacterial display (enrichment ratio); higher = better substrate or ligand; peptides without Tyr show the background

Quick one: SH2 binding enrichment of PDGHEYIYVDP [PDGFRA_Y572] ?
0.748

Quick one: SH2 binding enrichment of FADGVYQALEE [DUOX2_Y70_YF] ?
0.882

Quick one: SH2 binding enrichment of IHFAIYLLKYS [ARMC9_Y107] ?
0.955

* * *

Target: EPHB2 (UniProt P29323)
Test: phosphorylation enrichment, bacterial display (enrichment ratio); higher = better substrate or ligand; peptides without Tyr show the background
quantity-name: phosphorylation enrichment
# answer = number (no unit)

sequence-text	phosphorylation enrichment
PSAELYSFALP [PDGFRB_Y716_N718Y_YF]	11.8

Quick one: phosphorylation enrichment of SRFQFYFQQKG [CHKB_Y381] ?
0.612

Quick one: phosphorylation enrichment of AGNPAYRSFSN [IL4R_Y497] ?
0.318

Quick one: phosphorylation enrichment of LNPDGYKKAYE [CPXM2_Y427_E428K] ?
0.749

Quick one: phosphorylation enrichment of PDSVDYPKKGY [CTSK_Y121_R122P] ?
0.951

Quick one: phosphorylation enrichment of MFCAGYDTKQE [F10_Y407] ?
0.805

Quick one: phosphorylation enrichment of FSGQVYRQRRK [TH_Y230_D227G] ?
0.772
